Test system: P12-Ichikawa
Assay: cell viability relative to DMSO control; higher = less cytotoxic
Details: RPMI 5 mM glucose + 10% FBS; 48 h; 0.19 µM

molecule: CCOC1=CC=CC=C1N\2C(=O)C3=C(C=CC=C3)\N=C2C(C)N4CCN(CC4)C(=O)COC5=CC=C(Cl)C=C5 (stereo unspecified)
targetOrTestSystem: P12-Ichikawa
cell viability: 111%
//
molecule: NC(=O)c1ncn([C@@H]2O[C@H](CO)[C@@H](O)[C@H]2O)c1O
targetOrTestSystem: P12-Ichikawa
cell viability: 126%
//
molecule: CC(NCCc1ccc(O)cc1)C(O)c1ccc(O)cc1 (stereo unspecified)
targetOrTestSystem: P12-Ichikawa
cell viability: 114%
//
molecule: CC(O)C1C2C(C)\C(=C(/N2C1=O)C(O)=O)SC3CNC(C3)C(=O)N(C)C (stereo unspecified)
targetOrTestSystem: P12-Ichikawa
cell viability: 85.5%
//
molecule: C[C@]12CC[C@H]3[C@@H](CCC/4=C/C(=O)CC[C@]34C)[C@@H]1CC[C@@H]2OC(=O)CCC5CCCC5
targetOrTestSystem: P12-Ichikawa
cell viability: 104%
//
molecule: COc1ncc(-c2ccc3c(Nc4cc(Oc5cc(F)cc(F)c5)cc(C(=O)O)c4)c([S+](=O)([O-])NC4CC4)cnc3c2)c(OC)n1
targetOrTestSystem: P12-Ichikawa
cell viability: 84.2%
//
molecule: COc1cc(N2CCC(N(C)C)CC2)ccc1Nc1ncc(Cl)c(Nc2ccccc2P(C)(C)=O)n1
targetOrTestSystem: P12-Ichikawa
cell viability: 104%
//
molecule: O=C1NC(=O)/C(=C/c2ccc(-c3ccc(F)cc3O)o2)S1
targetOrTestSystem: P12-Ichikawa
cell viability: 111%
//
molecule: N[S+](=O)([O-])OC[C@@H]1C[C@@H](n2ccc3c(N[C@H]4CCc5ccccc54)ncnc32)C[C@@H]1O
targetOrTestSystem: P12-Ichikawa
cell viability: 120%
//
molecule: C[C@H]1O[C@H](C[C@H](O)[C@@H]1O)O[C@H]2[C@@H](O)C[C@@H](O[C@@H]2C)O[C@H]3[C@@H](O)C[C@@H](O[C@@H]3C)O[C@H]4CC[C@@]5(C)[C@H](CC[C@@H]6[C@@H]5C[C@@H](O)[C@]7(C)[C@H](CC[C@]67O)C/8=C/C(=O)OC8)C4
targetOrTestSystem: P12-Ichikawa
cell viability: 58.1%
//
molecule: CNC(=O)Nc1ccc(-c2nc(N3CC4CCC(C3)O4)c3cnn(C4CCC5(CC4)OCCO5)c3n2)cc1
targetOrTestSystem: P12-Ichikawa
cell viability: 65.8%
//
molecule: CN(C)C1=C(Br)C=C(C=C1)C\2NC3=C(\C4=C2C(=O)CC(C)(C)C4)C5=CC=CC=C5C=C3 (stereo unspecified)
targetOrTestSystem: P12-Ichikawa
cell viability: 100%
//
molecule: Cc1onc(-c2ccccc2)c1C(=O)N[C@@H]1C(=O)N2[C@@H]1SC(C)(C)[C@@H]2C(=O)[O-].[Na+]
targetOrTestSystem: P12-Ichikawa
cell viability: 122%
//
molecule: COc1cc(O)c2c(c1)C(=O)c1cc(C)cc(O)c1C2=O
targetOrTestSystem: P12-Ichikawa
cell viability: 116%
//
molecule: COc1cccc2c1[C@]13CCN(CC4CC4)[C@H](C2)[C@]1(OC)CCC(=O)C3
targetOrTestSystem: P12-Ichikawa
cell viability: 129%
//
molecule: COC1=CC=C2/C3=N/CCN3\C(=N/C2=C1OC)NC(=O)C4=CC=CN=C4
targetOrTestSystem: P12-Ichikawa
cell viability: 115%

---

Test system: P12-Ichikawa
Assay: cell viability relative to DMSO control; higher = less cytotoxic
Details: RPMI 5 mM glucose + 10% FBS; 48 h; 46.1 µM
One threshold, 20%, splits the recorded cell viability values: lower ones are MET, equal or higher ones are NOT MET.

compound: CCN1CCN(C(=O)Cc2ccc(Nc3ncc(F)c(Nc4ccc(C(=O)Nc5ccccc5Cl)cc4)n3)cc2)CC1
cat: NOT MET
--
compound: CC(NCCc1ccc(O)cc1)C(O)c1ccc(O)cc1 (stereo not given)
cat: NOT MET
--
compound: COc1cc(CNC(=O)CCCC/C=C/C(C)C)ccc1O
cat: MET
--
compound: CCOC1=CC=CC=C1N\2C(=O)C3=C(C=CC=C3)\N=C2C(C)N4CCN(CC4)C(=O)COC5=CC=C(Cl)C=C5 (stereo not given)
cat: MET
--
compound: OC1=CC2=C(C(=C1)O)C(=O)\C(=C(/O2)C3=CC(=C(O)C=C3)O)O
cat: NOT MET
--
compound: O=C(/C=C/c1ccc(O)cc1)c1ccc(O)cc1O
cat: MET
--
compound: N#C/N=C(\NCCCCCCOc1ccc(Cl)cc1)Nc1ccncc1
cat: MET
--
compound: COc1cc(C(=O)NS(=O)(=O)c2ccccc2C)ccc1Cc1cn(C)c2ccc(NC(=O)OC3CCCC3)cc12
cat: MET
--
compound: COc1cc(/C=C/C(=O)O)ccc1O
cat: NOT MET

---

System: NOMO1
Test: cell viability relative to DMSO control; higher = less cytotoxic
Details: HPLM + 10% dialyzed FBS; 48 h; 0.569 µM

compound: OC[C@H]1O[C@@H]2[C@@H](OC\3=N\C(=N)\C=C/[N@@]23)[C@@H]1O
targetOrTestSystem: NOMO1
cell viability: 109%

compound: CCN1CCCC1CNC(=O)c1cc([S+](N)(=O)[O-])ccc1OC (stereo not drawn)
targetOrTestSystem: NOMO1
cell viability: 111%

compound: CC(C)Cc1ccc(C(C)C(=O)O)cc1 (stereo not drawn)
targetOrTestSystem: NOMO1
cell viability: 90.6%

---

List of cell viability values.
System: P12-Ichikawa
Assay: cell viability relative to DMSO control; higher = less cytotoxic
Conditions: RPMI 5 mM glucose + 10% dialyzed FBS; 48 h; 0.000781 µM

compound: CC/1=C(\O)C(=O)\C=C2/C1=C/C=C3\[C@@]2(C)CC[C@@]4(C)[C@@H]5C[C@@](C)(CC[C@]5(C)CC[C@]34C)C(O)=O
targetOrTestSystem: P12-Ichikawa
resultUnit: %
cell viability: 96.1
--
compound: CNC(=O)[C@H](CC/1=C/N=C\2/C=C\C\C=C12)NC(=O)[C@H](CC(C)C)CC(=O)NO
targetOrTestSystem: P12-Ichikawa
resultUnit: %
cell viability: 105
--
compound: O=C1NC(=O)/C(=C/c2ccc(-c3ccc(F)cc3O)o2)S1
targetOrTestSystem: P12-Ichikawa
resultUnit: %
cell viability: 115
--
compound: CC1(C)C(N(O)C(=O)Nc2ccc(Cl)cc2)N(c2ccc(Cl)cc2)C(=O)N1CC(=O)N/N=C/C=C/c1ccc([N+](=O)[O-])o1 (stereo unspecified)
targetOrTestSystem: P12-Ichikawa
resultUnit: %
cell viability: 115
--
compound: CC(C)C[C@H](NC(=O)[C@@H](O)[C@H](N)Cc1ccccc1)C(=O)O
targetOrTestSystem: P12-Ichikawa
resultUnit: %
cell viability: 116
--
compound: c1ccc(-c2oc3ncnc(NC[C@@H]4CCCO4)c3c2-c2ccccc2)cc1
targetOrTestSystem: P12-Ichikawa
resultUnit: %
cell viability: 109

---

Test system: SEM cells
Test: cell viability relative to DMSO control; higher = less cytotoxic
Settings: RPMI 5 mM glucose + 10% FBS; 48 h; 46.1 µM
One threshold, 50%, splits the recorded cell viability values: lower ones are 1 (yes), equal or higher ones are 0 (no).

molecule: N#C/N=C(\NCCCCCCOc1ccc(Cl)cc1)Nc1ccncc1
cat: 1 (yes)

molecule: c1ccc(-c2oc3ncnc(NC[C@@H]4CCCO4)c3c2-c2ccccc2)cc1
cat: 0 (no)

molecule: Nc1ncnc2c1c(-c1cccc(OCc3ccccc3)c1)cn2C1CC(CN2CCCC2)C1 (stereo not given)
cat: 1 (yes)

molecule: CCOC1=CC=CC=C1N\2C(=O)C3=C(C=CC=C3)\N=C2C(C)N4CCN(CC4)C(=O)COC5=CC=C(Cl)C=C5 (stereo not given)
cat: 1 (yes)

molecule: O=c1[nH]c(=O)n(C2CCCO2)cc1F (stereo not given)
cat: 0 (no)

molecule: CNC(=O)CN1CCC(Oc2cc3c(Nc4cccc(Cl)c4F)ncnc3cc2OC)CC1
cat: 0 (no)

molecule: C1CCN2C[C@H]3C[C@H](\C=C/4CCCN[C@@H]34)[C@H]2C1
cat: 0 (no)

molecule: Cc1noc(-c2ccc(CSCCC(=O)O)cc2)c1NC(=O)OC(C)c1ccccc1Cl (stereo not given)
cat: 0 (no)

molecule: NC(=O)Nc1cc(-c2cccc(F)c2)sc1C(=O)N[C@H]1CCCNC1
cat: 1 (yes)

molecule: O=[S+]([O-])(c1cccc2cnccc12)N1CCCNCC1
cat: 0 (no)

---

System: SEM cells
Assay: AUC of viability dose-response curve (% viability x log10 dose units); higher = less sensitive
Conditions: RPMI 5 mM glucose + 10% dialyzed FBS; 48 h
One threshold, 400, splits the recorded AUC of viability dose-response curve values: lower ones are condition met, equal or higher ones are condition not met.

compound: CC(=O)NCC(=O)N1[C@@H]2CC[C@H]1c1ccc(Nc3ncc(C(F)(F)F)c(NC4CCC4)n3)cc12
cat: condition met
--
compound: CCOc1cc(CC(=O)N[C@@H](CC(C)C)c2ccccc2N2CCCCC2)ccc1C(=O)O
cat: condition not met
--
compound: NC(=O)OCC(COC(N)=O)c1ccccc1
cat: condition not met
--
compound: CC[C@]1(O)C[C@@H]2CN(CCc3c([nH]c4ccccc34)[C@@](C(=O)OC)(c3cc4c(cc3OC)N(C)[C@H]3[C@@](O)(C(N)=O)[C@H](O)[C@]5(CC)C=CCN6CC[C@]43[C@@H]65)C2)C1
cat: condition met
--
compound: CC(C)[C@H](N)C(=O)OCCOC[N]1C=NC2=C1\N=C(N)/NC2=O
cat: condition not met
--
compound: CC(NCCc1ccc(O)cc1)C(O)c1ccc(O)cc1 (stereo not drawn)
cat: condition not met
--
compound: O=C(/C=C/c1ccc(O)cc1)c1ccc(O)cc1O
cat: condition not met
--
compound: CCOC(=O)Nc1ccc(NCc2ccc(F)cc2)nc1N
cat: condition not met
--
compound: CC1(C)C(N(O)C(=O)Nc2ccc(Cl)cc2)N(c2ccc(Cl)cc2)C(=O)N1CC(=O)N/N=C/C=C/c1ccc([N+](=O)[O-])o1 (stereo not drawn)
cat: condition met
--
compound: Nc1nc(Cl)nc2c1ncn2[C@@H]1O[C@H](CO)[C@@H](O)[C@@H]1F
cat: condition met
--
compound: N#C[C@H](O[C@@H]1O[C@H](CO[C@@H]2O[C@H](CO)[C@@H](O)[C@H](O)[C@H]2O)[C@@H](O)[C@H](O)[C@H]1O)c1ccccc1
cat: condition not met
--
compound: CC(C)C[C@H](NC(=O)[C@@H](O)[C@H](N)Cc1ccccc1)C(=O)O
cat: condition not met
--
compound: COc1cccc2c1CCCC2CCCN1CCN(C2CCCCC2)CC1 (stereo not drawn)
cat: condition not met
--
compound: NC(=O)c1ccc2[nH]c(-c3ccc(Oc4ccc(Cl)cc4)cc3)nc2c1
cat: condition not met
--
compound: N[S+](=O)([O-])OC[C@@H]1C[C@@H](n2ccc3c(N[C@H]4CCc5ccccc54)ncnc32)C[C@@H]1O
cat: condition met
--
compound: CCOC(=O)\C1=C\[C@@H](OC(CC)CC)[C@H](NC(C)=O)[C@@H](N)C1
cat: condition not met
